Assay: Safety (body weight, tolerance) in the PA1222 model
Format: in vivo
Conditions: Group 03, 10 mg/kg i.v. QW×3; day 3
parameter-measured: Body weight

[[record]]
molecule = "O=[N+]([O-])c1ccc(C(OP(=O)(N2CC2)N2CC2)C(F)(F)F)cc1Oc1ccc(-c2ccc(F)cc2)c(F)c1 (stereo not shown) [AST]"
test_result = "23.5 g"


* * *

Assay: Safety (body weight, tolerance) in the HPAF-II model
Type: in vivo, Balb/c nude female mice
Details: Group 5, 1 mg/kg i.v. QD×5, 2 days off, 2 weeks off, QD×5; day 25
From the text: Balb/c nude female mice were subcutaneously inoculated with human-derived pancreatic cancer HPAF-II cells so as to establish a subcutaneous transplantation model of human-derived pancreatic cancer. […]
parameter-measured: Body weight (g)

[[record]]
query_smiles = "C[C@@H](OP(=O)(N1CC1)N1CC1)c1ccc([N+](=O)[O-])c(Oc2cccc(C(=O)N(C)C)c2)c1"
unit = "g"
test_result = 24.9


* * *

Assay: Safety (body weight, tolerance) in the LU11693 model
Format: in vivo, BALB/c nude mice
Details: Group 03, 10 mg/kg tail vein QW×3; day 21
parameter-measured: Body weight

[[record]]
compound = "O=[N+]([O-])c1ccc(C(OP(=O)(N2CC2)N2CC2)C(F)(F)F)cc1Oc1ccc(-c2ccc(F)cc2)c(F)c1 (stereo not shown)"
test_result = "23 g"


* * *

Assay: Safety (body weight, tolerance) in the HPAF-II model
Assay type: in vivo, Balb/c nude female mice
Conditions: Group 3, 4 mg/kg i.v. QD×5, 2 days off, 2 weeks off, QD×5; day 2
parameter-measured: Body weight (g)

[[record]]
compound = "O=[N+]([O-])c1ccc(C(OP(=O)(N2CC2)N2CC2)C(F)(F)F)cc1Oc1ccc(-c2ccc(F)cc2)c(F)c1 (stereo not shown)"
parameter_measured = "Body weight"
test_result = 23.6


* * *

Assay: Safety (body weight, tolerance) in the HPAF-II model
Format: in vivo, Balb/c nude female mice
Conditions: Group 5, 1 mg/kg i.v. QD×5, 2 days off, 2 weeks off, QD×5; day 17
parameter-measured: Body weight (g)

[[record]]
query_smiles = "C[C@@H](OP(=O)(N1CC1)N1CC1)c1ccc([N+](=O)[O-])c(Oc2cccc(C(=O)N(C)C)c2)c1"
parameter_measured = "Body weight"
unit = "g"
test_result = 24.1


* * *

Assay: Safety (body weight, tolerance) in the HPAF-II model
Format: in vivo, Balb/c nude female mice
Conditions: Group 5, 1 mg/kg i.v. QD×5, 2 days off, 2 weeks off, QD×5; day 3
parameter-measured: Body weight (g)

[[record]]
query_smiles = "C[C@@H](OP(=O)(N1CC1)N1CC1)c1ccc([N+](=O)[O-])c(Oc2cccc(C(=O)N(C)C)c2)c1"
unit = "g"
test_result = 23.1


* * *

Experiment: Safety (body weight, tolerance) in the HPAF-II model
Assay type: in vivo, Balb/c nude female mice
Conditions: Group 2, 60 mg/kg i.p. QD×5/week×2 weeks; day 8
parameter-measured: Body weight (g)

[[record]]
molecule = "O=P1(NCCCl)OCCCN1CCCl (stereo not shown) [Ifosfamide, reference compound]"
test_result = 23.2


* * *

Experiment: Safety (body weight, tolerance) in the HPAF-II model
Assay type: in vivo, Balb/c nude female mice
Conditions: Group 4, 8 mg/kg i.v. QW×3; day 0
parameter-measured: Body weight

[[record]]
compound = "O=[N+]([O-])c1ccc(C(OP(=O)(N2CC2)N2CC2)C(F)(F)F)cc1Oc1ccc(-c2ccc(F)cc2)c(F)c1 (stereo not shown)"
test_result = "23.5 g"


* * *

Experiment: Safety (body weight, tolerance) in the HPAF-II model
Type: in vivo, Balb/c nude female mice
Details: Group 3, 4 mg/kg i.v. QD×5, 2 days off, 2 weeks off, QD×5; day 25
parameter-measured: Body weight (g)

[[record]]
molecule = "O=[N+]([O-])c1ccc(C(OP(=O)(N2CC2)N2CC2)C(F)(F)F)cc1Oc1ccc(-c2ccc(F)cc2)c(F)c1 (stereo not shown)"
parameter_measured = "Body weight"
test_result = 25.6


* * *

Assay: Safety (body weight, tolerance) in the HPAF-II model
Format: in vivo, Balb/c nude female mice
Details: Group 2, 60 mg/kg i.p. QD×5/week×2 weeks; day 11
From the text: Balb/c nude female mice were subcutaneously inoculated with human-derived pancreatic cancer HPAF-II cells so as to establish a subcutaneous transplantation model of human-derived pancreatic cancer. […]
parameter-measured: Body weight (g)

[[record]]
molecule = "O=P1(NCCCl)OCCCN1CCCl (stereo not shown) [Ifosfamide, reference compound]"
unit = "g"
test_result = 23.6


* * *

Experiment: Safety (body weight, tolerance) in the HPAF-II model
Assay type: in vivo, Balb/c nude female mice
Conditions: Group 2, 60 mg/kg i.p. QD×5/week×2 weeks; day 21
parameter-measured: Body weight (g)

[[record]]
compound = "O=P1(NCCCl)OCCCN1CCCl (stereo not shown) [Ifosfamide, reference compound]"
unit = "g"
test_result = 25.9


* * *

Experiment: Safety (body weight, tolerance) in the HPAF-II model
Assay type: in vivo, Balb/c nude female mice
Settings: Group 3, 4 mg/kg i.v. QD×5, 2 days off, 2 weeks off, QD×5; day 31
parameter-measured: Body weight (g)

[[record]]
compound = "O=[N+]([O-])c1ccc(C(OP(=O)(N2CC2)N2CC2)C(F)(F)F)cc1Oc1ccc(-c2ccc(F)cc2)c(F)c1 (stereo not shown) [AST]"
parameter_measured = "Body weight"
unit = "g"
test_result = 25.8


* * *

Test: Safety (body weight, tolerance) in the LU11693 model
Assay type: in vivo, BALB/c nude mice
Conditions: Group 03, 10 mg/kg tail vein QW×3; day 18
parameter-measured: Body weight (g)

[[record]]
molecule = "O=[N+]([O-])c1ccc(C(OP(=O)(N2CC2)N2CC2)C(F)(F)F)cc1Oc1ccc(-c2ccc(F)cc2)c(F)c1 (stereo not shown) [AST]"
unit = "g"
test_result = 23.3


* * *

Experiment: Safety (body weight, tolerance) in the HPAF-II model
Assay type: in vivo, Balb/c nude female mice
Conditions: Group 5, 1 mg/kg i.v. QD×5, 2 days off, 2 weeks off, QD×5; day 7
parameter-measured: Body weight (g)

[[record]]
query_smiles = "C[C@@H](OP(=O)(N1CC1)N1CC1)c1ccc([N+](=O)[O-])c(Oc2cccc(C(=O)N(C)C)c2)c1"
test_result = 23.3


* * *

Assay: Safety (body weight, tolerance) in the HPAF-II model
Type: in vivo, Balb/c nude female mice
Conditions: Group 5, 1 mg/kg i.v. QD×5, 2 days off, 2 weeks off, QD×5; day 31
parameter-measured: Body weight

[[record]]
molecule = "C[C@@H](OP(=O)(N1CC1)N1CC1)c1ccc([N+](=O)[O-])c(Oc2cccc(C(=O)N(C)C)c2)c1 [AST-3424]"
test_result = "25.6 g"


* * *

Test: Safety (body weight, tolerance) in the HPAF-II model
Type: in vivo, Balb/c nude female mice
Details: Group 2, 60 mg/kg i.p. QD×5/week×2 weeks; day 28
parameter-measured: Body weight (g)

[[record]]
compound = "O=P1(NCCCl)OCCCN1CCCl (stereo not shown) [Ifosfamide, reference compound]"
parameter_measured = "Body weight"
test_result = 25.4


* * *

Assay: Safety (body weight, tolerance) in the HPAF-II model
Format: in vivo, Balb/c nude female mice
Details: Group 5, 1 mg/kg i.v. QD×5, 2 days off, 2 weeks off, QD×5; day 22
parameter-measured: Body weight (g)

[[record]]
query_smiles = "C[C@@H](OP(=O)(N1CC1)N1CC1)c1ccc([N+](=O)[O-])c(Oc2cccc(C(=O)N(C)C)c2)c1"
parameter_measured = "Body weight"
test_result = 24.6


* * *

Experiment: Safety (body weight, tolerance) in the HPAF-II model
Type: in vivo, Balb/c nude female mice
Settings: Group 3, 4 mg/kg i.v. QD×5, 2 days off, 2 weeks off, QD×5; day 7
parameter-measured: Body weight (g)

[[record]]
molecule = "O=[N+]([O-])c1ccc(C(OP(=O)(N2CC2)N2CC2)C(F)(F)F)cc1Oc1ccc(-c2ccc(F)cc2)c(F)c1 (stereo not shown) [AST]"
parameter_measured = "Body weight"
test_result = 23.9


* * *

Test: Safety (body weight, tolerance) in the HPAF-II model
Format: in vivo, Balb/c nude female mice
Conditions: Group 3, 4 mg/kg i.v. QD×5, 2 days off, 2 weeks off, QD×5; day 23
parameter-measured: Body weight (g)

[[record]]
molecule = "O=[N+]([O-])c1ccc(C(OP(=O)(N2CC2)N2CC2)C(F)(F)F)cc1Oc1ccc(-c2ccc(F)cc2)c(F)c1 (stereo not shown)"
test_result = 25.3


* * *

Assay: Safety (body weight, tolerance) in the HPAF-II model
Type: in vivo, Balb/c nude female mice
Details: Group 2, 60 mg/kg i.p. QD×5/week×2 weeks; day 4
parameter-measured: Body weight (g)

[[record]]
compound = "O=P1(NCCCl)OCCCN1CCCl (stereo not shown) [Ifosfamide, reference compound]"
parameter_measured = "Body weight"
test_result = 23.2

